B1: library; a variant is named by its letters at N, in order (parent)
chain: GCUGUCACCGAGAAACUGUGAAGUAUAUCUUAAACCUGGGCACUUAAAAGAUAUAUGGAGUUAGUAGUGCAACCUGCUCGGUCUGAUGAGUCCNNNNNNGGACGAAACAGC

- Variants of: B1
- Protocol description: normalized RNA/DNA level with ligand (relative to sTRSVctl = 100) (log10 (% of sTRSVctl)); HEK293T; ligand: cyclic di-GMP (c-di-GMP-II aptamer); ligand concentration (+) RNA-Seq: 1 mM; higher = less ribozyme self-cleavage, higher mRNA level
- Condition notes: reporter: mCherry (pCS4076), ligand present: yes
Measured metric: normalized RNA/DNA level with ligand (log10)

Example variants with recorded normalized RNA/DNA level with ligand (log10):
[in] Value lookup for normalized RNA/DNA level with ligand (log10); key = AGAUAU
[out] 1.78

[in] normalized RNA/DNA level with ligand (log10) lookup needed for AACGGC , thanks.
[out] 1.8

[in] I am curious: what normalized RNA/DNA level with ligand (log10) value has been reported for CACAAC ?
[out] 1.77

[in] Fill in the blank: the reported normalized RNA/DNA level with ligand (log10) of AUCCUU is ____.
[out] 1.89

[in] Need normalized RNA/DNA level with ligand (log10) of AGUCAA , thanks.
[out] 1.69

Could you report normalized RNA/DNA level with ligand (log10) for every entry in the following list?
1. GGUUGU
2. CUCGUU
3. CCAUGU
4. ACGACA
5. ACAUUA
6. UCGUGU

[out]
[1.86, 1.86, 1.8, 1.74, 1.62, 1.81]

Batch request: normalized RNA/DNA level with ligand (log10) for each of the following variants.
1. GAGUUG
2. CUGUCA
3. GGUGAC
4. AGCACG
5. CCGCAC
6. GACCUU
7. GCGCGA

[out]
1: 1.92; 2: 1.68; 3: 1.86; 4: 1.77; 5: 1.85; 6: 1.86; 7: 1.65

Hi there! I need normalized RNA/DNA level with ligand (log10) for each item below, if you can.
1. CUGCAG
2. UUCGAA
3. UUCAAU
4. ACGUAG

[out]
1. 1.88
2. 1.82
3. 1.82
4. 1.72

[in] So what does the record say about normalized RNA/DNA level with ligand (log10) for AAUCCG ?
[out] 1.93

Just for reference, the supplement of paper PMC6757056 is where these values come from.
